tested on: CAKI-1 renal; test: NCI-60 one-dose screen, 48 h (100 = growth as untreated, 0 = no growth, -100 = all killed); conditions: 10 µM
The panel holds about 83,000 compounds, 20% with a hit somewhere; the sample as a whole holds those more often.
Response key: t means growth >= 30%; f means growth < 30%.

- molecule: "O=C1C(c2ccccc2)C2C=CC(C2)N1O (centres undefined)"
  class-name: "t"
- molecule: "CN1CCC2(CC1)NC(=O)c1c(c3ccc(Cl)c(Cl)c3n1C)C2C#N (centres undefined)"
  class-name: "f"
- molecule: "O=C(c1cccs1)c1ccccc1Cc1ccccc1"
  class-name: "t"
- molecule: "CC(C)=NNc1ncnc2c1ncn2C1OC(CO)C(O)C1O (centres undefined)"
  class-name: "f"
- molecule: "C=C(NC(=O)C(=C)NC(=O)c1csc(C2=NC3c4csc(n4)C4NC(=O)c5csc(n5)C(C(C)(O)C(C)O)NC(=O)C5CSC(=N5)/C(=C/C)NC(=O)C(C(C)O)NC(=O)c5csc(n5)C3(CC2)NC(=O)C(C)NC(=O)C(=C)NC(=O)C(=C)NC(=O)C(C(C)C)NC2C=Cc3c(C(C)O)cc(nc3C2O)C(=O)OC4C)n1)C(N)=O (centres undefined)"
  class-name: "f"
- molecule: "COc1cc(-c2cc(C(=O)N3CCN(C(=O)c4ccccc4NCc4cccs4)CC3)nc3cc(-c4ccccc4)nn23)cc(OC)c1OC"
  class-name: "t"
- molecule: "CC1=C(N2CCOCC2)C(N2CCOCC2)=C(C)C(=O)C1=O"
  class-name: "t"
- molecule: "COc1ccc2c(c1)O/C(=C\\c1ccc([N+](=O)[O-])s1)C2=O"
  class-name: "t"
- molecule: "COc1cccc(NC(=O)c2sc3nc4c(cc3c2N)C(O)CCC4)c1 (centres undefined)"
  class-name: "t"
- molecule: "CCC1(C(C)C)NC(=O)NC1=O (centres undefined)"
  class-name: "t"
- molecule: "COc1ccc(-c2nc3sc(C4CC4)nn3c2/C=C2/C(=O)Nc3ccc(OC)cc32)cc1"
  class-name: "t"
- molecule: "COc1cc(-c2cc(/C=C/C(=O)c3ccc4c(c3)OCO4)[nH]n2)cc(OC)c1OC"
  class-name: "t"
- molecule: "COc1cccc(C(=O)Nc2ccc(CN3CCc4nc5cc(OC)c(OC)cc5cc43)cc2)c1"
  class-name: "f"
- molecule: "COc1cc(-c2cc(C(=O)N3CCN(C(=O)c4ccccc4NCc4ccco4)CC3)nc3cc(-c4ccccc4)nn23)cc(OC)c1OC"
  class-name: "f"
- molecule: "COc1cc(-c2cc(/C=C3\\C(=O)Nc4ccc(Cl)cc43)[nH]n2)cc(OC)c1OC"
  class-name: "f"
- molecule: "C[N+](C)(C)c1ncnc2nc[nH]c12"
  class-name: "t"
- molecule: "CC/C(=N\\N=C(/CC)c1ccc(Br)cc1)c1ccc(Br)cc1"
  class-name: "t"
- molecule: "COc1ccc(/C=C2/CN(C(=O)c3ccccc3F)C/C(=C\\c3ccc(OC)cc3)C2=O)cc1"
  class-name: "t"
- molecule: "CC(=O)c1cc(Br)ccc1O"
  class-name: "t"
- molecule: "CC(C)(Cl)CCC1=C(Cl)C(=O)c2ccccc2C1=O"
  class-name: "t"
- molecule: "CCN(CC)CCC(CNc1c(C)cnc2cc(Cl)ccc12)c1ccc(Cl)c(Cl)c1 (centres undefined)"
  class-name: "t"
- molecule: "CC(=O)O[C@]1(C)CC[C@H]2[C@H](CNCCc3ccc(Cl)cc3)C(=O)O[C@@H]2C2=C(C)C(=O)C[C@H]21"
  class-name: "t"
- molecule: "CCn1cc(C(=O)O)c(=O)c2cnc(N3CCCC3)nc21"
  class-name: "t"
- molecule: "COc1ccc(OC)c(/C=C/c2nc(SCc3ccccc3)n(-c3ccc(Cl)cc3)n2)c1"
  class-name: "f"
- molecule: "COc1cc(/C=C2\\Oc3cc(OCC(=O)c4ccccc4)ccc3C2=O)cc(OC)c1OC"
  class-name: "t"
- molecule: "O=C(N/N=C/c1ccccc1)C(Oc1ccccc1)c1ccccc1 (centres undefined)"
  class-name: "t"
- molecule: "CSc1nn(-c2ccccc2)c2ncnc(Oc3ccc(C)cc3)c12"
  class-name: "t"
- molecule: "Cc1cccc2c1O/C(=C\\c1ccc([N+](=O)[O-])o1)C2=O"
  class-name: "f"
- molecule: "COc1cccc(C2C3=C(COC3=O)N(CCO)c3cc(OC)ccc32)c1 (centres undefined)"
  class-name: "t"
- molecule: "CCOC(=O)C(CSC(c1ccccc1)(c1ccccc1)c1ccccc1)NC(=O)C(CSC(c1ccccc1)(c1ccccc1)c1ccccc1)NC(c1ccccc1)(c1ccccc1)c1ccccc1 (centres undefined)"
  class-name: "t"
- molecule: "Cc1ccc(S(=O)(=O)Oc2ccc3c4c(c(=O)oc3c2)CCCCC4)cc1"
  class-name: "t"
- molecule: "N=C(N)c1ccc(-c2ccc(-c3ccccc3)o2)nc1"
  class-name: "t"
- molecule: "C#Cc1ccc(-n2c(/C=C/c3ccc(Cl)c(F)c3)nc3ncccc3c2=O)cc1"
  class-name: "f"
- molecule: "CCCCN(CCCC)CCCCCCCCC(O)c1cc2ccccc2c2ccccc12 (centres undefined)"
  class-name: "t"
- molecule: "COc1ccc2c(c1)N(CCO)C1=C(C(=O)OC1)C2c1ccc(OC)c(OC)c1 (centres undefined)"
  class-name: "t"
- molecule: "O=S(=O)(NCCCNc1nccc(-c2c(-c3ccc(F)cc3)nc3sccn23)n1)c1ccc2ccccc2c1"
  class-name: "t"
- molecule: "O=C1/C(=C\\c2ccc(F)cc2)CN(C(=O)c2ccccc2F)C/C1=C\\c1ccc(F)cc1"
  class-name: "f"
- molecule: "COc1ccc(N=C2C(=Nc3ccc(OC)cc3)N(c3ccc(N(C)C)cc3)C(=S)N2c2ccc(OC)cc2)cc1"
  class-name: "t"
- molecule: "O=C1/C(=C\\c2ccc(F)cc2)CN(C(=O)c2ccc([N+](=O)[O-])cc2)C/C1=C\\c1ccc(F)cc1"
  class-name: "t"
